Below, each entry is listed alongside its reported NEP Cleavage (t1/2, min).
- tgt: Recombinant human NEP (Homo sapiens)
- Sequence (P08473 whole entry): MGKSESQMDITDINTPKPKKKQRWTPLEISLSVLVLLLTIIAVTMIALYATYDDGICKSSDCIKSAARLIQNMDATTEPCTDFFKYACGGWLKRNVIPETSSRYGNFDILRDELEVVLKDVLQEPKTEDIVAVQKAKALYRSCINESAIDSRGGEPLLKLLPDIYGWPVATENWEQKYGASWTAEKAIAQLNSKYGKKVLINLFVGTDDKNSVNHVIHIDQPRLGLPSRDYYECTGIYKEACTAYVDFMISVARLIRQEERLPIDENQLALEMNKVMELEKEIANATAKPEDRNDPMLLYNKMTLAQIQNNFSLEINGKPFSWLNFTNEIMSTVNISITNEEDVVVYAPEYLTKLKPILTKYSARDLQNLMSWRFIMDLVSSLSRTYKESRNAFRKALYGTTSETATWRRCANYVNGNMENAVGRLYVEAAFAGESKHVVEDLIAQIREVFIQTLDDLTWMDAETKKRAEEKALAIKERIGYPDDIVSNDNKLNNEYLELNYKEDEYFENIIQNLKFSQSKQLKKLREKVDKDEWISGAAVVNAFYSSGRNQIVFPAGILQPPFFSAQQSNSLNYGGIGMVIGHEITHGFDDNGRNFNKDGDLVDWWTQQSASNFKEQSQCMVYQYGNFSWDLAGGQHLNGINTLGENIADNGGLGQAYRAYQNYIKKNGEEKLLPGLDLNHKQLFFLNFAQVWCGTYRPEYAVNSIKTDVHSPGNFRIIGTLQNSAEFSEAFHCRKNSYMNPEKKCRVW
- protocol.description: in vitro NEP cleavage assay (disappearance of non-cleaved CNP variant)
- experimental.context: 100 uM peptide, 1 ug/mL NEP, 0.1 M Tris pH 7, 37° C.; adjusted t1/2, CNP22 normalized to 80 min

- compound: "CC[C@H](C)[C@@H]1NC(=O)[C@H](CCCNC(=N)N)NC(=O)[C@H](CC(=O)O)NC(=O)[C@H](CC(C)C)NC(=O)[C@H](CCCCN)NC(=O)[C@H](CC(C)C)NC(=O)CNC(=O)[C@H](Cc2cccc(Cl)c2)NC(=O)[C@@H](NC(=O)CNC(=O)[C@H](CCCCN)NC(=O)[C@H](CO)NC(=O)[C@H](CC(C)C)NC(=O)CN)CSSC[C@@H](C(=O)O)NC(=O)CNC(=O)[C@H](CC(C)C)NC(=O)CNC(=O)[C@H](CO)NC(=O)[C@H](CCSC)NC(=O)[C@H](CO)NC(=O)CNC1=O [Analog G]"
  tgt: "Recombinant human NEP (Homo sapiens)"
  NEP Cleavage (t1/2, min): 135
- compound: "CC[C@H](C)[C@@H]1NC(=O)[C@H](CCCNC(=N)N)NC(=O)[C@H](CC(=O)O)NC(=O)[C@H](CC(C)C)NC(=O)[C@H](CCCCN)NC(=O)[C@H](CC(C)C)NC(=O)CNC(=O)[C@H](Cc2ccccc2)NC(=O)[C@@H](NC(=O)CNC(=O)[C@H](CCCCN)NC(=O)[C@H](CO)NC(=O)[C@H](CC(C)C)NC(=O)CN)CSSC[C@@H](C(=O)O)NC(=O)CNC(=O)[C@H](CC(C)C)NC(=O)CNC(=O)[C@H](CO)NC(=O)[C@H](CCSC)NC(=O)[C@H](CO)NC(=O)CNC1=O [CNP22, reference compound]"
  tgt: "Recombinant human NEP (Homo sapiens)"
  NEP Cleavage (t1/2, min): 80
- compound: "CC[C@H](C)[C@@H]1NC(=O)[C@H](CCCNC(=N)N)NC(=O)[C@H](CC(=O)O)NC(=O)[C@H](CC(C)C)NC(=O)[C@H](CCCCN)NC(=O)[C@H](CC(C)C)N(C)C(=O)CNC(=O)[C@H](Cc2ccccc2)NC(=O)[C@@H](NC(=O)CNC(=O)[C@H](CCCCN)NC(=O)[C@H](CO)NC(=O)[C@H](CC(C)C)NC(=O)CN)CSSC[C@@H](C(=O)O)NC(=O)CNC(=O)[C@H](CC(C)C)N(C)C(=O)CNC(=O)[C@H](CO)NC(=O)[C@H](CCSC)NC(=O)[C@H](CO)NC(=O)CNC1=O [Analog K, CNP22, N-methyl-L9, N-methyl-L20]"
  tgt: "Recombinant human NEP (Homo sapiens)"
  NEP Cleavage (t1/2, min): 80
